Tested on: Haemophilus influenzae
Test: Compound was tested in vitro for its antibacterial activity against Haemophilus influenzae NCTC 4560 strain.
Type: functional
readout: MIC (µg/mL)
The reply should contain only the number, in µg/mL.

Exercise: So what MIC did C[C@@H](NC(=O)[C@@H](N)CCCN=C(N)N)P(=O)(O)O get with Haemophilus influenzae?
Key: 128

Exercise: Do the same for C[C@H](N)C(=O)N[C@@H](C)C(=O)N[C@@H](C)C(=O)N[C@H](C)P(=O)(O)O please
Key: 0.06

Exercise: Input C[C@H](N)C(=O)N[C@@H](C)C(=O)N[C@H](C)P(=O)(O)O
Key: 0.06

Exercise: Can you handle CCC[C@H](NC(=O)[C@H](CC(C)C)NC)C(=O)N[C@@H](CCC)C(=O)N[C@H](C)P(=O)(O)O next?
Key: 0.25

Exercise: Also CNCC(=O)N[C@@H](C)C(=O)N[C@@H](C)C(=O)N[C@H](C)P(=O)(O)O , if possible.
Key: 0.03
